- TARGET OR TEST SYSTEM: Gal3S(b1-4)[Fuc(a1-3)]Glc6S
- ASSAY OVERVIEW: glycan array binding signal (z-score within array); higher = stronger binding
- RUN CONDITIONS: glycan notation: IUPAC condensed, linker removed
This excerpt belongs to a sample that is enriched for the strongest signals.
Exercise: state measured glycan array binding signal (z-score) for each of the binders provided.

Sample records with glycan array binding signal (z-score):
Epa3to2 (Candida glabrata) (protein) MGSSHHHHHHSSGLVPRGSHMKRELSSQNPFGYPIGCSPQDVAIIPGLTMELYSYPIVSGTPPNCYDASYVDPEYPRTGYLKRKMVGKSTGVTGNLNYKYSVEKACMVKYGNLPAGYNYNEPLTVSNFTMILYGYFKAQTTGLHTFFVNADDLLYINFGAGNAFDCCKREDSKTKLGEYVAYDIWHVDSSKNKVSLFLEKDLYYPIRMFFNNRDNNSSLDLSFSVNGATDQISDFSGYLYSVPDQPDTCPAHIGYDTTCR :: 0.958
FimA-N1 (Actinomyces oris) (protein) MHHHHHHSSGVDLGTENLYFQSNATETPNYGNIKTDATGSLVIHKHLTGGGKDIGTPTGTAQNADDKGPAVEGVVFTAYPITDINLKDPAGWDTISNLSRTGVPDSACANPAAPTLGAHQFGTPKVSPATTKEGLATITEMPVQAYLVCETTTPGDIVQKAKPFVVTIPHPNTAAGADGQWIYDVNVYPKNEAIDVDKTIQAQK :: 1.9
GST Gap3 (Streptococcus parasanguinis) (protein) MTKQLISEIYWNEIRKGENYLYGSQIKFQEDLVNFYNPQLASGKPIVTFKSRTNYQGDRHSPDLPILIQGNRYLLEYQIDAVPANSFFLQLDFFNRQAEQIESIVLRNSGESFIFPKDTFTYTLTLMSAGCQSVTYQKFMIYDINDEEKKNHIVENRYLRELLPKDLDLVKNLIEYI :: 1.61
GNAT (Pseudomonas aeruginosa), Q9HV14 (protein) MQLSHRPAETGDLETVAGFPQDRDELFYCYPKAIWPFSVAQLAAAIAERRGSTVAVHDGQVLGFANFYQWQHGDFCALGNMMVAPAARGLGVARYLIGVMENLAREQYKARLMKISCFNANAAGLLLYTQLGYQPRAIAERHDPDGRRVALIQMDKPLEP :: 6.54
PEB1 (Campylobacter jejuni), Q0P9X8 (protein) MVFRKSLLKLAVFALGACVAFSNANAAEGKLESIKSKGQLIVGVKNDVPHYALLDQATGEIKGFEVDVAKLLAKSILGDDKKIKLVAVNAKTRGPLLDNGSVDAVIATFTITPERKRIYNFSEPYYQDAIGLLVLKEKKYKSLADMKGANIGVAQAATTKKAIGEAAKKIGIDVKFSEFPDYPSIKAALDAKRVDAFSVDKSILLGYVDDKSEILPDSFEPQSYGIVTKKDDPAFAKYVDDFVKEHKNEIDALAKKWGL :: 0.849

Can you give me glycan array binding signal (z-score) for all of these, one by one?
1. SRS2 (Toxoplasma gondii), O15695 (protein) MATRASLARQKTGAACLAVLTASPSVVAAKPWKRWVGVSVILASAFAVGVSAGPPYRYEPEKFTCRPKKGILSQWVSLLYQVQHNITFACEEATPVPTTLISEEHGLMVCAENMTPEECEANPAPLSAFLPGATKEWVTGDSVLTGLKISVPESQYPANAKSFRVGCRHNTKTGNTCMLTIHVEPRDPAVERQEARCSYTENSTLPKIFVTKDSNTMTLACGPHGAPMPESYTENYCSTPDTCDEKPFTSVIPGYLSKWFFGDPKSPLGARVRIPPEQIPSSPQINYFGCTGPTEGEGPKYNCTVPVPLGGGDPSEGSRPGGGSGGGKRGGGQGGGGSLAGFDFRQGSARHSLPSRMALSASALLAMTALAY
2. BSR4 (Toxoplasma gondii), Q95NL6 (protein) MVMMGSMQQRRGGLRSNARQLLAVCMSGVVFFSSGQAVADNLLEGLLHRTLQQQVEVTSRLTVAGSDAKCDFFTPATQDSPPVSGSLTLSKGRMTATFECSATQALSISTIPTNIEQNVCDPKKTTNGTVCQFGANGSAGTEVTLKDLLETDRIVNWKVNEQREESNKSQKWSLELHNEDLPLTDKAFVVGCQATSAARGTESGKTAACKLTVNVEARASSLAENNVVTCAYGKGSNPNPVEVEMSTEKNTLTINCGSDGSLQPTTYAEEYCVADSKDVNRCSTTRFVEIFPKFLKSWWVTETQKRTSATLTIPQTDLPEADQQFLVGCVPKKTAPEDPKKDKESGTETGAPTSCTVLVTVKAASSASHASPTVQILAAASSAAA
3. RBMC2 (Vibrio cholerae) (protein) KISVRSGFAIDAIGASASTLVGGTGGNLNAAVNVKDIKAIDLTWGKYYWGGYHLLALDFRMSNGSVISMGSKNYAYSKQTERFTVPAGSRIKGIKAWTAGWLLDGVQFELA
4. SJCP3842 (Schistosoma japonicum) (protein) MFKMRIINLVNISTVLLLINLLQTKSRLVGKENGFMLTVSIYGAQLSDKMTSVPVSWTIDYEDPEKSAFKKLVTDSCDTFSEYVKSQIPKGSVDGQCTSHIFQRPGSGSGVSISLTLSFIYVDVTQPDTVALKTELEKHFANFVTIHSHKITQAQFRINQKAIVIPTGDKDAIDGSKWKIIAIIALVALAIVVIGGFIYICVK
5. Gz-CVNH (Gibberella zeae) (protein) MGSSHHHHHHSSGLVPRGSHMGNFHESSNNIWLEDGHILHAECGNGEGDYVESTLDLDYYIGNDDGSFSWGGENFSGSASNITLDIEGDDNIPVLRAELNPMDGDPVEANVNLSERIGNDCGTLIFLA

[2.13, 0.993, -0.305, 2.61, 0.005]

Each recorded value in this set is attributed to the supplement of paper PMC8728848.
